# procedure-summary: HEK293 12hr Apoptosis Induction qHTS against the NCATS CANVASS Library (AID 1347361)
# settings: HEK293 caspase-3/7 Caspase-Glo luminescence; series mostly up to 46.1 µM
Records with an inconclusive call do not appear. Activity calls are given as the source filed them. Calls come from the whole dose curve; as a rule, active = well fitted activation curve with a large enough effect; inconclusive = small, poorly fitted or top-dose-only effect; inactive = flat fitted curve, though single readings scatter.
Parameter call: string, one of true (1) = active, false (0) = inactive

O=C(O)[C@@]12CO[C@@]3(O)C4CCN(CC[C@H]31)[C@H]4c1c2[nH]c2ccccc12	false (0)

Qu. Please share the test call associated with CCC1=C2CCCN3C(=O)O[C@H]([C@H]1OC(C)=O)[C@H]23 .
Ans. false (0)

Qu. Please share the test call associated with C[C@@H]1C(=O)[C@]23CC[C@H]1C[C@]21O[C@H]2C(C)(C)C=CC(=O)[C@]23COC1=O .
Ans. false (0)

Qu. Please share the test call associated with CN1CCc2cc3c(c4c2[C@H]1[C@@H](O)c1ccccc1-4)OCO3 .
Ans. false (0)

Qu. Please share the test call associated with COc1cc(O)c2c3c(c(O)cc(C)c13)C(=O)OC2 .
Ans. false (0)

Qu. Please share the test call associated with CCCCCCCCCCCCCCCC(=O)OC/C=C(\C)CCCC(C)CC(C)C(C)C (stereo unspecified) .
Ans. false (0)

Qu. Please share the test call associated with COc1ccc(/C=C2\COc3cc(O)ccc3C2=O)cc1 .
Ans. false (0)

Qu. Please share the test call associated with CO[C@H]1/C=C/CC[C@@H](S[C@@H]2O[C@H](CO)[C@@H](O)[C@H](O)[C@H]2O)CC(=O)O[C@@H](/C(C)=C/[C@H](C)C(=O)CCCC2CC(=O)NC(=O)C2)[C@@H](C)[C@@H]1O .
Ans. false (0)

Qu. Please share the test call associated with CCCCCC[C@H](CCCCC[C@@H](O)C(N)=O)OC(=O)[C@@H]1CC=CN1C(=O)c1ccccc1O .
Ans. false (0)

Qu. Please share the test call associated with CS/C=C/C(N)=O .
Ans. false (0)

Qu. Please share the test call associated with CO[C@@H]1[C@H](O)[C@@H](C)O[C@@H](OC[C@@H]2C(C)OC(=O)/C=C/[C@H](C)C(O[C@@H]3O[C@H](C)CC4(OC(=O)O[C@@H]4C)C3O)[C@@H](C)CC(C)C(=O)CC[C@H]3OC23)[C@@H]1OC (stereo partly specified) .
Ans. false (0)

Qu. Please share the test call associated with C[C@@H]1O[C@H](c2c(O)cc(O)c3c(=O)cc(-c4ccc(O)cc4)oc23)[C@H](O)[C@H](O)[C@H]1O .
Ans. false (0)

Qu. Please share the test call associated with CN1CC[C@]2(c3cccc4c3N[C@@H]3N(C)CC[C@]43[C@@]34CCN(C)[C@@H]3Nc3c([C@]56CCN(C)[C@H]5Nc5ccccc56)cccc34)c3ccccc3N[C@H]12 .
Ans. false (0)

Qu. Please share the test call associated with C[C@]12CC[C@]3(C1)[C@H](CC2=O)CC(OC(=O)c1ccccc1)[C@H]1[C@@](CO)(C(=O)O)CCC[C@@]13C (stereo partly specified) .
Ans. false (0)

Qu. Please share the test call associated with C/C=C/C(=O)[C@@H](C)C1=CC(=O)C2=C(O[C@@]34CC[C@H](O)C(C)(C)[C@@H]3CC[C@H](C)[C@@]4(C)C2)C1=O .
Ans. true (1)

Qu. Please share the test call associated with CCCCCCCCCCCCCCC[C@H](O)C[C@@H](O)C[C@@H](O)C[C@@H](O)C[C@@H](O)C[C@H]1CC=CC(=O)O1 .
Ans. true (1)
